- Test system: S. aureus 195
- experimental protocol: MIC against standard strains (Test Example 3)
- Type: cell-based
- test conditions: Staphylococcus aureus; S. aureus 195 (MRSA) (Test Example 3); read-out: MIC
Parameter MIC: see the listing below.
Reply with a number, then the unit it belongs to.

Find the measured MIC of Cc1nc(-c2cc[n+](CC3=C(C(=O)[O-])N4C(=O)[C@@H](NC(=O)/C(=N\O)c5csc(N)n5)[C@H]4SC3)cc2)cs1 with S. aureus 195 as test system.
3.13 µg/mL

Find the measured MIC of Cc1nnc(SCC2=C(C(=O)O)N3C(=O)[C@@H](NC(=O)Cn4cnnn4)[C@H]3SC2)s1 [CEZ, cefazolin, reference compound] with S. aureus 195 as test system.
50 µg/mL

Find the measured MIC of NC(=O)Cc1ccc[n+](CC2=C(C(=O)[O-])N3C(=O)[C@@H](NC(=O)/C(=N\O)c4csc(N)n4)[C@H]3SC2)c1 with S. aureus 195 as test system.
3.13 µg/mL

Find the measured MIC of CNC(=O)c1ccc[n+](CC2=C(C(=O)[O-])N3C(=O)[C@@H](NC(=O)/C(=N\O)c4csc(N)n4)[C@H]3SC2)c1 with S. aureus 195 as test system.
3.13 µg/mL

Find the measured MIC of CNc1nc(-c2cc[n+](CC3=C(C(=O)[O-])N4C(=O)[C@@H](NC(=O)/C(=N\O)c5csc(N)n5)[C@H]4SC3)cc2)cs1 with S. aureus 195 as test system.
3.13 µg/mL

Find the measured MIC of CO[C@@]1(NC(=O)CSC(F)F)C(=O)N2C(C(=O)O)=C(CSc3nnnn3CCO)CO[C@@H]21 [FMOX, flomoxef, reference compound] with S. aureus 195 as test system.
3.13 µg/mL

====

- Tested on: Escherichia coli CSH2 (RE45)
- experimental protocol: MIC against standard strains (Test Example 1)
- Type: cell-based
Counter-ions that a name gives are not always drawn.
observable: log10 of MIC (log10 of the value in µg/mL)
Remember, log10 of MIC, in µg/mL.

# annotated cases, reported log10 of MIC shown
compound	tested target	log10 of MIC
NC(=O)c1ccc[n+](CC2=C(C(=O)[O-])N3C(=O)[C@@H](NC(=O)/C(=N\O)c4csc(N)n4)[C@H]3SC2)c1	Escherichia coli CSH2 (RE45)	-0.41
CN(C)CCn1nnnc1SCC1=C(C(=O)O)N2C(=O)[C@@H](NC(=O)Cc3csc(N)n3)[C@H]2SC1 [CTM, cefotiam, reference compound]	Escherichia coli CSH2 (RE45)	-0.70
Nc1nc(/C(=N/O)C(=O)N[C@@H]2C(=O)N3C(C(=O)[O-])=C(C[n+]4ccc(-c5csc(N)n5)cc4)CS[C@H]23)cs1	Escherichia coli CSH2 (RE45)	-1.30

Find the measured log10 of MIC of NC(=O)Nc1ccc[n+](CC2=C(C(=O)[O-])N3C(=O)[C@@H](NC(=O)/C(=N\O)c4csc(N)n4)[C@H]3SC2)c1 with Escherichia coli CSH2 (RE45) as test system.
-0.41

Find the measured log10 of MIC of CC(=O)c1ccc[n+](CC2=C(C(=O)[O-])N3C(=O)[C@@H](NC(=O)/C(=N\O)c4csc(N)n4)[C@H]3SC2)c1 with Escherichia coli CSH2 (RE45) as test system.
-0.11

Find the measured log10 of MIC of Nc1ccc[n+](CC2=C(C(=O)[O-])N3C(=O)[C@@H](NC(=O)/C(=N\O)c4csc(N)n4)[C@H]3SC2)c1 [Compound (3), hydrochloride] with Escherichia coli CSH2 (RE45) as test system.
-0.70

Find the measured log10 of MIC of CO[C@@]1(NC(=O)CSC(F)F)C(=O)N2C(C(=O)O)=C(CSc3nnnn3CCO)CO[C@@H]21 [FMOX, flomoxef, reference compound] with Escherichia coli CSH2 (RE45) as test system.
-1.00
